Source: patent US6472348B1

system: wheat (Tr); test: Test Example 5: crop plant selectivity by upland field soil treatment (wheat), phytotoxicity; type: in vivo; design: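 grade of crop injury; 5 = at least 90%; 4 = 70 to 90%; 3 = 50 to 70%; 2 = 30 to 50%; 1 = 10 to 30%; 0 = under 10%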; settings: dose 6.3 g ai/10a, 21st day after application
reported endpoint: Phytotoxicity Tr
In your answer, state the number alone without any accompanying words.

molecule	assay target	Phytotoxicity Tr
Cn1c(C(F)(F)F)ccc(-c2c(F)cc(Cl)c3oc(CBr)cc23)c1=O [Compound No. 4-7]	wheat (Tr)	1
Cn1c(C(F)(F)F)ccc(-c2cc(OCC(F)(F)F)c(Cl)cc2F)c1=O [1-155]	wheat (Tr)	2
Cn1c(C(F)(F)F)ccc(-c2cc(OCC(F)F)c(Cl)cc2F)c1=O [1-173]	wheat (Tr)	1
C=CC(O)c1cc(-c2ccc(C(F)(F)F)n(C)c2=O)c(F)cc1Cl (stereo not shown) [Compound 1-197]	wheat (Tr)	1

Entry Cc1cc2c(-c3ccc(C(F)(F)F)n(C)c3=O)c(F)cc(Cl)c2o1 [Compound 4-1] ; Phytotoxicity Tr = 2

molecule C#CCN1C(=O)COc2cc(F)c(-c3cn(C)c(C(F)(F)F)cc3=O)cc21 [Compound 7-1] , Phytotoxicity Tr observed: 2

Consider CCCC(=O)c1cc(-c2ccc(C(F)(F)F)n(C)c2=O)c(F)cc1Cl [Compound No. 1-194] . Its measured Phytotoxicity Tr is 1

get_value(item= C=CCN1C(=O)COc2cc(Cl)c(-c3ccc(C(F)(F)F)n(C)c3=O)cc21 [Compound 2-26] , readout=Phytotoxicity Tr) returns 1

Notebook: COc1cc(-c2ccc(C(F)(F)F)n(C)c2=O)c(Cl)cc1Cl [Compound 1-205] , Phytotoxicity Tr read as 1

The measured Phytotoxicity Tr associated with Cn1c(C(F)(F)F)ccc(-c2cc(OCC3CC3)c(Cl)cc2F)c1=O [1-160] reads 2

Notebook: C=CC(C)Oc1cc(-c2ccc(C(F)(F)F)n(C)c2=O)c(F)cc1Cl (stereo not shown) [Compound 1-182] , Phytotoxicity Tr read as 1

C#CCSc1cc(-c2ccc(C(F)(F)F)n(C)c2=O)c(F)cc1Cl [1-44] yielded Phytotoxicity Tr of 1

Measured Phytotoxicity Tr of C#CCN1C(=O)COc2cc(Cl)c(-c3ccc(C(F)(F)F)n(C)c3=O)cc21 [Compound 2-25] : 2

The reported Phytotoxicity Tr of the molecule CCCON=Cc1cc(-c2ccc(C(F)(F)F)n(C)c2=O)c(F)cc1Cl [Compound 1-188] was 1

Notebook: COc1cc(-c2ccc(C(F)(F)F)n(N)c2=O)c(F)cc1Cl [1-179] , Phytotoxicity Tr read as 1

C#CCN1C(=O)C(C)Oc2cc(Cl)c(-c3ccc(C(F)(F)F)n(C)c3=O)cc21 (stereo not shown) [Compound No. 2′-1] has a reported Phytotoxicity Tr of 2

Note to self: Phytotoxicity Tr recorded for CSCOc1cc(-c2ccc(C(F)(F)F)n(C)c2=O)c(F)cc1Cl [Compound 1-208] was 1

Field Phytotoxicity Tr (entry COCCOCOc1cc(-c2ccc(C(F)(F)F)n(C)c2=O)c(F)cc1Cl [Compound 1-207] ) reads 1

According to the records, this molecule Cc1cc(-c2ccc(C(F)(F)F)n(C)c2=O)c(F)cc1Cl [1-90] displays Phytotoxicity Tr of 1

Looking up C=C(C)COc1cc(-c2ccc(C(F)(F)F)n(C)c2=O)c(F)cc1Cl [1-151] , I see its Phytotoxicity Tr listed as 2

// recorded Phytotoxicity Tr for CNS(=O)(=O)c1cc(-c2ccc(C(F)(F)F)n(C)c2=O)c(F)cc1Cl [Compound No. 1-71] : 2

Quick note, Phytotoxicity Tr for Cn1c(C(F)(F)F)ccc(-c2cc(Br)c(Cl)cc2F)c1=O [1-138] landed at 1

According to the records, this molecule CC(C)Sc1cc(-c2ccc(C(F)(F)F)n(C)c2=O)c(F)cc1Cl [1-43] displays Phytotoxicity Tr of 1
